- Test system: P388 mouse leukemia cells
- setup conditions: 92 h
Where a SMILES comes first, the peptide text is derived from it. [ ]: non-standard residue; d: D form. The star is where a group is joined. NHCH2CH2OH = OCCN*; For = O=C*

compound: CC(C)C[C@@H](NC(=O)[C@H](C)NC(=O)[C@H](NC(=O)[C@H](C)NC(=O)CNC(=O)[C@@H](NC=O)C(C)C)C(C)C)C(=O)N[C@H](C(=O)N[C@@H](C(=O)N[C@@H](Cc1c[nH]c2ccccc12)C(=O)N[C@@H](C(=O)N[C@@H](Cc1c[nH]c2ccccc12)C(=O)N[C@H](CC(C)C)C(=O)N[C@@H](Cc1c[nH]c2ccccc12)C(=O)N[C@H](CC(C)C)C(=O)N[C@@H](Cc1c[nH]c2ccccc12)C(=O)NCCO)C(C)C)[C@H](C)O)C(C)C [compound 10367] (For-VGA[dV]A[dL]V[dT]W[dV]W[dL]W[dL]W-NHCH2CH2OH)
cell viability/%: 100.0%
--
compound: CC(C)C[C@@H](NC(=O)[C@H](Cc1c[nH]c2ccccc12)NC(=O)[C@@H](CC(C)C)NC(=O)[C@@H](NC(=O)[C@H](NC(=O)[C@H](C)NC(=O)[C@H](NC(=O)[C@H](C)NC(=O)CNC(=O)[C@@H](NC=O)C(C)C)[C@H](C)O)C(C)C)C(C)C)C(=O)N[C@@H](Cc1c[nH]c2ccccc12)C(=O)N[C@H](CC(C)C)C(=O)N[C@@H](Cc1c[nH]c2ccccc12)C(=O)N[C@@H](C(=O)N[C@@H](Cc1c[nH]c2ccccc12)C(=O)NCCO)C(C)C [compound 11317] (For-VGA[dT]A[dV]V[dL]W[dL]W[dL]W[dV]W-NHCH2CH2OH)
cell viability/%: 42.1%
--
compound: CC(C)C[C@@H](NC(=O)[C@H](C)NC(=O)CNC(=O)[C@@H](NC=O)C(C)C)C(=O)N[C@@H](C)C(=O)N[C@@H](C(=O)N[C@H](C(=O)N[C@H](CC(C)C)C(=O)N[C@@H](Cc1c[nH]c2ccccc12)C(=O)N[C@H](CC(C)C)C(=O)N[C@@H](Cc1c[nH]c2ccccc12)C(=O)N[C@@H](C(=O)N[C@@H](Cc1c[nH]c2ccccc12)C(=O)N[C@H](CC(C)C)C(=O)N[C@@H](Cc1c[nH]c2ccccc12)C(=O)NCCO)C(C)C)C(C)C)C(C)C [compound 13252] (For-VGA[dL]A[dV]V[dL]W[dL]W[dV]W[dL]W-NHCH2CH2OH)
cell viability/%: 2.6%
--
compound: CC(C)C[C@@H](NC(=O)[C@H](Cc1c[nH]c2ccccc12)NC(=O)[C@H](NC(=O)[C@H](Cc1c[nH]c2ccccc12)NC(=O)[C@H](NC(=O)[C@H](Cc1c[nH]c2ccccc12)NC(=O)[C@@H](CC(C)C)NC(=O)[C@@H](NC(=O)[C@H](NC(=O)[C@H](C)NC(=O)[C@H](NC(=O)[C@H](C)NC(=O)CNC(=O)[C@@H](NC=O)C(C)C)C(C)C)C(C)C)C(C)C)C(C)C)C(C)C)C(=O)N[C@@H](Cc1c[nH]c2ccccc12)C(=O)NCCO [compound 3111] (For-VGA[dV]A[dV]V[dL]W[dV]W[dV]W[dL]W-NHCH2CH2OH)
cell viability/%: 8.2%

###

- Tested on: Streptococcus pyogenes SSI-9
- method summary: Antibacterial activity assay of bead-derived peptides (three concentrations)
- Assay type: cell-based
- Design: key: +++: inhibition by the 640-fold diluted peptide solution; ++: inhibition by the 160-fold diluted solution; +: inhibition by the 40-fold diluted solution; -: no inhibition
- setup conditions: S. pyogenes, bead-derived peptide solution, three concentrations
- Protocol: Each type of assay must be simplified and miniaturized to assess the activities of the library peptides in a 96-well format for the high-throughput screening. Next, the peptides in groups A and B were subjected to the antibacterial assay and structural determination. Three peptide concentrations were applied to evaluate the growth inhibition of S. pyogenes and determine the antibacterial activity. […] Finally, the structures of the peptides were determined. […]
Where a SMILES comes first, the peptide text is derived from it. [ ]: non-standard residue; d: D form. The star is where a group is joined. NHCH2CH2OH = OCCN*; For = O=C*

molecule: CNC(=O)C[C@@H](NC(=O)[C@H](Cc1c[nH]c2ccccc12)NC(=O)[C@H](NC(=O)[C@H](Cc1c[nH]c2ccccc12)NC(=O)[C@@H](CC(C)C)NC(=O)[C@H](Cc1c[nH]c2ccccc12)NC(=O)[C@@H](CC(C)C)NC(=O)[C@@H](NC(=O)[C@@H](CC(C)C)NC(=O)[C@H](C)NC(=O)[C@@H](CC(C)C)NC(=O)[C@H](C)NC(=O)CNC(=O)[C@@H](NC=O)C(C)C)C(C)C)C(C)C)C(=O)N[C@@H](Cc1c[nH]c2ccccc12)C(=O)NCCO [compound 10008] (For-VGA[dL]A[dL]V[dL]W[dL]W[dV]W[dD](NHMe)W-NHCH2CH2OH)
antibacterial activity: -

molecule: CC(C)C[C@@H](NC(=O)[C@H](Cc1c[nH]c2ccccc12)NC(=O)[C@@H](CC(C)C)NC(=O)[C@H](Cc1c[nH]c2ccccc12)NC(=O)[C@@H](CC(C)C)NC(=O)[C@H](Cc1c[nH]c2ccccc12)NC(=O)[C@H](NC(=O)[C@@H](NC(=O)[C@H](NC(=O)[C@H](C)NC(=O)[C@H](NC(=O)[C@H](C)NC(=O)CNC(=O)[C@@H](NC=O)C(C)C)[C@H](C)O)C(C)C)C(C)C)C(C)C)C(=O)N[C@@H](Cc1c[nH]c2ccccc12)C(=O)NCCO [compound 3786] (For-VGA[dT]A[dV]V[dV]W[dL]W[dL]W[dL]W-NHCH2CH2OH)
antibacterial activity: -

###

- System: P388 mouse leukemia cells
- setup conditions: 92 h
- Protocol: Each type of assay must be simplified and miniaturized to assess the activities of the library peptides in a 96-well format for the high-throughput screening. […] Mammalian cytotoxicity assay of bead-derived peptides . P388 cells were obtained from Institute of […] for 92 h, the numbers of viable cells were determined by […] at 37 °C. The absorbance of each well at 415 nm was measured using a Benchmark microplate reader (Bio-Rad). The cytotoxicities were evaluated as cell viability (%). […]
Where a SMILES comes first, the peptide text is derived from it. [ ]: non-standard residue; d: D form. The star is where a group is joined. NHCH2CH2OH = OCCN*; For = O=C*
Catalogue of cell viability/% readings, one per entry.

compound: CC(C)C[C@@H](NC(=O)[C@H](C)NC(=O)[C@H](NC(=O)[C@H](C)NC(=O)CNC(=O)[C@@H](NC=O)C(C)C)C(C)C)C(=O)N[C@H](C(=O)N[C@@H](C(=O)N[C@@H](Cc1c[nH]c2ccccc12)C(=O)N[C@H](CC(C)C)C(=O)N[C@@H](Cc1c[nH]c2ccccc12)C(=O)N[C@@H](C(=O)N[C@@H](Cc1c[nH]c2ccccc12)C(=O)N[C@H](CC(C)C)C(=O)N[C@@H](Cc1c[nH]c2ccccc12)C(=O)NCCO)C(C)C)C(C)C)C(C)C [compound 5241] (For-VGA[dV]A[dL]V[dV]W[dL]W[dV]W[dL]W-NHCH2CH2OH)
experimental system: P388 mouse leukemia cells
cell viability/% [%]: 12.2
--
compound: CNC(=O)C[C@@H](NC(=O)[C@H](Cc1c[nH]c2ccccc12)NC(=O)[C@H](NC(=O)[C@H](Cc1c[nH]c2ccccc12)NC(=O)[C@@H](CC(C)C)NC(=O)[C@H](Cc1c[nH]c2ccccc12)NC(=O)[C@@H](CC(C)C)NC(=O)[C@@H](NC(=O)[C@@H](CC(C)C)NC(=O)[C@H](C)NC(=O)[C@@H](CC(C)C)NC(=O)[C@H](C)NC(=O)CNC(=O)[C@@H](NC=O)C(C)C)C(C)C)C(C)C)C(=O)N[C@@H](Cc1c[nH]c2ccccc12)C(=O)NCCO [compound 3911] (For-VGA[dL]A[dL]V[dL]W[dL]W[dV]W[dD](NHMe)W-NHCH2CH2OH)
experimental system: P388 mouse leukemia cells
cell viability/% [%]: 100.0

###

- Test system: Streptococcus pyogenes SSI-9
- method summary: Antibacterial activity assay of bead-derived peptides (three concentrations)
- Type: cell-based
- Design: key: +++: inhibition by the 640-fold diluted peptide solution; ++: inhibition by the 160-fold diluted solution; +: inhibition by the 40-fold diluted solution; -: no inhibition
- setup conditions: S. pyogenes, bead-derived peptide solution, three concentrations
Where a SMILES comes first, the peptide text is derived from it. [ ]: non-standard residue; d: D form. The star is where a group is joined. NHCH2CH2OH = OCCN*; For = O=C*
observable: antibacterial activity

compound: CNC(=O)C[C@@H](NC(=O)[C@@H](NC(=O)[C@H](NC(=O)[C@H](C)NC(=O)[C@H](NC(=O)[C@H](C)NC(=O)CNC(=O)[C@@H](NC=O)C(C)C)C(C)C)C(C)C)C(C)C)C(=O)N[C@@H](Cc1c[nH]c2ccccc12)C(=O)N[C@@H](C(=O)N[C@@H](Cc1c[nH]c2ccccc12)C(=O)N[C@H](CC(C)C)C(=O)N[C@@H](Cc1c[nH]c2ccccc12)C(=O)N[C@H](CC(C)C)C(=O)N[C@@H](Cc1c[nH]c2ccccc12)C(=O)NCCO)C(C)C [compound 4049] (For-VGA[dV]A[dV]V[dD](NHMe)W[dV]W[dL]W[dL]W-NHCH2CH2OH)
data value: -
